protocol_summary: Plasma concentration in rat at 10 mg/kg, po administered as single dose measured at 1 hr
Assay type: ADME, organism-based
Parameters: dose 10 mg/kg, route oral
measured_attribute: concentration at 1 h (ng/mL)
Give just the numeric value; ng/mL need not be written.

Query block: // query concentration at 1 h value for entry COc1ccc(C)c2sc(NC(=O)c3ccncc3)nc12
Result block: 3740

###

measured_on: Muscarinic acetylcholine receptor M4 (Homo sapiens) (UniProt P08173)
Sequence (P08173 whole entry): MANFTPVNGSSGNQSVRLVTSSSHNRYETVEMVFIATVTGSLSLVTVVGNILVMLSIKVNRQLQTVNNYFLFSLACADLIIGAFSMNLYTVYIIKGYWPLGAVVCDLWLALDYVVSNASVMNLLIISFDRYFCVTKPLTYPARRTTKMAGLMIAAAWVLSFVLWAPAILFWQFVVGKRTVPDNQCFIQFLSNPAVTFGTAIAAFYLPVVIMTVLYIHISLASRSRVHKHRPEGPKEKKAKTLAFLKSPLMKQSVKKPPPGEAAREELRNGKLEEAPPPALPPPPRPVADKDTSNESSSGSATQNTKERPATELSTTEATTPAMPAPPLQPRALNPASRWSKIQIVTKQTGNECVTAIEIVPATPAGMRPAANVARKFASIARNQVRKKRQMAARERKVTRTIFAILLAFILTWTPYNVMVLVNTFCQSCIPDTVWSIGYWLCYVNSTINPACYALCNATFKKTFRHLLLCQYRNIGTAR
protocol_summary: Positive allosteric modulation of human M4 receptor expressed in CHO-K1 cells coexpressing Gqi5 assessed as potentiation of acetylcholine-mediated calcium mobilization incubated for 144 secs prior to acetylcholine addition by Fluo-4-AM staining relative to acetylcholine
Type: functional, cell-based
Classification field: condition met = %max at or over 40%; condition not met = %max under 40%.

Reference set (3 entries):
COc1ccc(C)c2sc(NC(=O)N3CCCC3)nc12; condition met
COc1ccc(C)c2sc(NC(=O)C3CC3C)nc12 (centres undefined); condition met
COc1ccc(C)c2sc(NC(=O)C3CCCC3)nc12; condition met

Query block: In plain terms: is recorded %max at least 40% for COc1ccc(C)c2sc(NC(=O)c3cnccn3)nc12 ?
Result block: condition not met

Query block: Now consider COc1ccc(C)c2sc(NC(=O)C3=COCCO3)nc12 and answer again.
Result block: condition met

Query block: Can you check COc1ccc(C)c2sc(NC(=O)c3cccnc3)nc12 next?
Result block: condition not met

Query block: Try this compound next: COc1cccc2sc(NC(=O)c3ccncc3)nc12
Result block: condition not met

Query block: Then this compound: COCC(=O)Nc1nc2c(OC)ccc(C)c2s1
Result block: condition met

Query block: Next: CCCC(=O)Nc1nc2c(OC)ccc(C)c2s1
Result block: condition met

Query block: Param item: COc1ccc(C)c2sc(NC(=O)c3ccncc3)nc12
Result block: condition met

Query block: # repeat for COc1ccc(C)c2sc(NC(=O)NC3CCCC3)nc12
Result block: condition not met

Query block: And for COc1ccc(C)c2sc(NC(=O)C3CCCOC3)nc12 (centres undefined) ?
Result block: condition met

Query block: Item: COc1ccc(C)c2sc(NC(=O)C3CCCCO3)nc12 (centres undefined)
Result block: condition met

Query block: Then COc1ccc(C)c2sc(C(=O)NC3CC3)nc12 ?
Result block: condition not met

Query block: Field entry: COc1ccc(C)c2sc(NC(=O)C3CCC3)nc12
Result block: condition met

Query block: Also check COc1ccc(C)c2sc(NC(=O)C3CC3)nc12
Result block: condition met

Query block: Try the compound COc1ccc(C)c2sc(NC(=O)C3CCCCC3)nc12
Result block: condition met

Query block: For COc1ccc(C)c2sc(NC(=O)c3ccco3)nc12 then?
Result block: condition met

###

Here, each record is paired with measured pEC50 data.
measured_on: Muscarinic acetylcholine receptor M4 (Homo sapiens, UniProt P08173)
Sequence (P08173 whole entry): as above
protocol_summary: Positive allosteric modulation of human M4 receptor expressed in CHO-K1 cells coexpressing Gqi5 assessed as potentiation of acetylcholine-mediated calcium mobilization incubated for 144 secs prior to acetylcholine addition by Fluo-4-AM staining
Assay type: functional, cell-based
Just so you know, pEC50 here is -log10 of the concentration in molar units; reply with that number alone.

COc1ccc(C)c2sc(NC(=O)c3cnccn3)nc12; 5.95
COc1ccc(C)c2sc(NC(=O)c3ccco3)nc12; 5.87
COc1ccc(C)c2sc(NC(=O)NC3CCCC3)nc12; 5.15
COc1ccc(C)c2sc(NC(=O)C3=COCCO3)nc12; 5.74
COc1ccc(C)c2sc(C(=O)NC3CC3)nc12; 5.11

Alright, here's another compound for you.
Query block: What value of pEC50 has been reported for the following compound? COc1cccc2sc(NC(=O)c3ccncc3)nc12
Result block: 5.55

###

protocol_summary: Half life in rat at 1 mg/kg, iv
Assay type: ADME, organism-based
Set-up: dose 1 mg/kg, route intravenous
assay_setup: in vivo
measured_attribute: half-life (min)
# number only, unit min dropped from output

Query block: Suppose we examine the compound COc1ccc(C)c2sc(NC(=O)c3ccncc3)nc12 ; what half-life value has been reported?
Result block: 57

###

protocol_summary: Plasma clearance in rat
Assay type: ADME, organism-based
measured_attribute: clearance

Cc1nc2sc(C(=O)NCc3ccncc3)c(N)c2c(C)c1Cl; > 100 mL/min/kg
COc1ccc(CNC(=O)c2sc3nc(C)cc(C)c3c2N)cc1; > 100 mL/min/kg

Read the next record carefully.
Query block: Find the recorded clearance belonging to Cc1cc(OCc2ccncc2)nc2sc(C(=O)NCc3cccc(F)c3F)c(N)c12 and report it.
Result block: > 100 mL/min/kg

###

measured_on: Muscarinic acetylcholine receptor M4 (Homo sapiens) (UniProt P08173)
protocol_summary: Positive allosteric modulation of human M4 receptor expressed in CHO-K1 cells coexpressing Gqi5 assessed as potentiation of acetylcholine-mediated calcium mobilization incubated for 144 secs prior to acetylcholine addition by Fluo-4-AM staining
Format: functional, cell-based
Active and inactive are the calls of the source. The rule behind the calls is not given here.
measured_attribute: pEC50

Example cases with answers are listed next.
O=C(Nc1nc2ccccc2s1)C1CCCCO1 (configuration not stated); inactive
COc1ccc(C)c2sc(C(=O)NC3CCCCC3)nc12; inactive
COc1ccc(C)c2sc(NC(=O)Nc3ccncc3)nc12; inactive
COc1ccc(C)c2sc(NS(=O)(=O)c3cccc(Cl)c3)nc12; inactive
COc1ccc2nc(NC(=O)c3ccncc3)sc2n1; inactive
COc1ccc(C)c2sc(NC(C)=O)nc12; inactive

Read the next record carefully.
Query block: pEC50 lookup needed for COc1ccc(C)c2sc(NC(=O)NC3CCC3)nc12 , thanks.
Result block: inactive

###

This listing pairs molecules with measured pEC50.
measured_on: Muscarinic acetylcholine receptor M4 (Homo sapiens, UniProt P08173)
protocol_summary: Positive allosteric modulation of human M4 receptor expressed in CHO-K1 cells coexpressing Gqi5 assessed as potentiation of acetylcholine-mediated calcium mobilization incubated for 144 secs prior to acetylcholine addition by Fluo-4-AM staining
pEC50: −log10 of the molar value.

Some solved entries appear below for comparison.
COc1ccc(C)c2sc(NC(=O)C3CCCC3)nc12; < 5.00
COc1ccc(C)c2sc(NC(=O)NC3CC3)nc12; < 5.00
COc1ccc(C)c2sc(NC(=O)C3CCCOC3)nc12 (stereo unspecified); < 5.00
COc1ccc(C)c2sc(NC(=O)N3CCCC3)nc12; < 5.00
COc1ccc(C)c2sc(NC(=O)c3ccncc3)nc12; 5.89

Consider the record given below.
Query block: For the molecule COc1ccc(C)c2sc(NC(=O)c3cccnc3)nc12 , what pEC50 is on record?
Result block: 5.63

###

protocol_summary: AUC in rat at 1 mg/kg, iv
Format: ADME, organism-based
Parameters: dose 1 mg/kg, route intravenous
assay_setup: plasma
measured_attribute: AUC (ng·h/mL)
Answer format: numeric, ng·h/mL implied, no suffix.

Query block: Please give the measured AUC for this compound: COc1ccc(C)c2sc(NC(=O)c3ccncc3)nc12
Result block: 1440

###

protocol_summary: Drug uptake in rat hepatic portal vein at 10 mg/kg, po administered as single dose measured at 1 hr
Assay type: ADME, organism-based
Parameters: dose 10 mg/kg, route oral
assay_setup: read-out: Drug uptake
measured_attribute: concentration at 1 h

Query block: Returns the measured concentration at 1 h for the input compound. Input: COc1ccc(C)c2sc(NC(=O)c3ccncc3)nc12
Result block: 3070 ng/mL

###

protocol_summary: Drug uptake in rat brain assessed per gram of tissue at 10 mg/kg, po administered as single dose measured at 1 hr
Assay type: ADME, organism-based
Parameters: dose 10 mg/kg, route oral
assay_setup: read-out: Drug uptake
measured_attribute: concentration at 1 h
Quote the value and follow it with the unit of measurement.

Query block: Fill in the blank: the reported concentration at 1 h of COc1ccc(C)c2sc(NC(=O)c3ccncc3)nc12 is ____.
Result block: 3090 ng/g

###

protocol_summary: Intrinsic clearance in rat liver microsomes
Type: ADME, Microsome
assay_setup: read-out: CLH
measured_attribute: CLint scaled (mL/min/kg)
State just the number; it will be interpreted in mL/min/kg.

Query block: Data request, read-out CLint scaled, for COc1ccc(C)c2sc(NC(=O)c3ccncc3)nc12
Result block: 48.5
